Measurement Description: Confirmation screen for delayed death inhibitors of the malarial parasite plastid, 48 hour incubation; further: nearly all actives have a fitted effect of over 65% in size
Condition Label: P. falciparum-infected erythrocytes, luciferase growth; series mostly up to 28.7 µM
About 1,200 (52%) of roughly 2,300 compounds were called active. Not shown: some 34% with an inconclusive outcome. The call rests on the fitted dose curve; in most records, active means well fitted inhibition curve with a large enough effect; inconclusive means small, poorly fitted or top-dose-only effect, or effect the other way; inactive means no such curve, though single readings can be large or run the other way. The set was probably picked from earlier hits. Some of the results follow.
Reply using exactly one outcome from 1 (yes) (active), 0 (no) (inactive)

Compound: COc1ccc(-n2nc(C#N)c(Cl)cc2=O)cc1
Answer Label: 0 (no)
//
Compound: Cc1cc(C)cc(NC(=O)c2cccnc2)c1
Answer Label: 0 (no)
//
Compound: O=C1NC(NS(=O)(=O)c2ccc(Cl)cc2)(C(F)(F)F)C(=O)N1Cc1cccnc1 (stereo unspecified)
Answer Label: 0 (no)
//
Compound: CCc1ccc(-c2cn(C3CCCCC3)c(=S)[nH]2)cc1
Answer Label: 1 (yes)
//
Compound: Cc1ccc(-n2c(Cl)c(Cl)nc(Cl)c2=O)cc1
Answer Label: 1 (yes)
//
Compound: CCN1CCN(c2ccc(S(=O)(=O)N3CCCCC3)cc2NC(=O)COc2cc(C)ccc2Cl)CC1
Answer Label: 1 (yes)

Request: Could you check what this test reported for `COc1ccc(Cc2nc3ccc(C(=O)NCCc4ccccn4)cc3o2)cc1OC` ?
Result: 1 (yes)

Request: Could you check what this test reported for `O=C(Nc1ccc2c(c1)CCCN2C(=O)c1ccco1)c1cc([N+](=O)[O-])ccc1Cl` ?
Result: 1 (yes)

Request: Could you check what this test reported for `CCOC(=O)NC(=O)COC(=O)c1ccc(O)cc1` ?
Result: 0 (no)

Request: Could you check what this test reported for `CCCCCCn1ccc(=N)cc1` ?
Result: 1 (yes)

Request: Could you check what this test reported for CCOC(=O)C1=C(C)N=c2s/c(=C\c3ccc(OCC(=O)O)cc3)c(=O)n2C1c1ccc(OC(C)C)cc1 (stereo unspecified) ?
Result: 1 (yes)
